Below, each entry is listed alongside its reported protein stability index.
# METHOD SUMMARY: protein stability index of a GFP-peptide fusion (yeast GPS) (PSI 1-4); higher = more stable; sorted into four equal gates, so the index is relative within each strain
# RUN PARAMETERS: san1∆

CONSTRUCT SEQUENCE	protein stability index
VSEITKLKFFPSGEALI [RPN14]	2.95
DETTVPSYYYYVDPETT [ROX3]	3.01
SHHLKADTIDHDELIDS [YGL172W/NUP49]	3.08
KAKSNQTQREKAPLQPN [IRR1]	3.09

---

# METHOD SUMMARY: protein stability index of a GFP-peptide fusion (yeast GPS) (PSI 1-4); higher = more stable; sorted into four equal gates, so the index is relative within each strain
# RUN PARAMETERS: doa10∆
MEASURE NAME: protein stability index

CONSTRUCT SEQUENCE	MEASURE NAME	RESULT VALUE
NVSIVANYIKERTKNAQ [SMC4]	protein stability index	3.02
SPQQFLRAHTDDSRNPD [PRE2]	protein stability index	2.93
GTFGGDGMYSESKLSLE [FAS2]	protein stability index	2.91
HISKIIGLDTQQVEGKL [RPN6]	protein stability index	2.95
PKLLDALNKISKYYPGV [SNU114]	protein stability index	3.08
VAEGKSKQDASPKPYAV [RPL8A]	protein stability index	3.04

---

The reader will find reported protein stability index values listed item by item below.
# METHOD SUMMARY: protein stability index of a GFP-peptide fusion (yeast GPS) (PSI 1-4); higher = more stable; sorted into four equal gates, so the index is relative within each strain
# RUN PARAMETERS: pdr5∆
MEASURE NAME: protein stability index

CONSTRUCT SEQUENCE	RESULT VALUE
IIHFHSHPEKRMIPPRM [SSN3]	2.95
LIQKLQNSANNNSDDED [IRR1]	3.08
HSSSVFKGTDFVHSVKK [SRB4]	2.93
LSEATESDLYKLKECPF [RPB2]	2.91
KRKLDIGKDTFVTRKSR [PRP8]	3.05
KGGIIASVGDILKTLER [YML031W/NDC1]	2.93
NIATQQNMQQSLQQMQH [GAL11]	2.92
NSSRFSDPMLQRTATLC [YCS4]	2.98
IVEQDKSMELFYDIRSL [YJL039C/NUP192]	2.93

---

# METHOD SUMMARY: protein stability index of a GFP-peptide fusion (yeast GPS) (PSI 1-4); higher = more stable; sorted into four equal gates, so the index is relative within each strain
# RUN PARAMETERS: ubr1∆

CONSTRUCT SEQUENCE	protein stability index
MRRNSKILNIIKCSQSS [POP5]	2.21
VAATNTPIIFIGTGEHI [SRP54]	2.6
DSFTMPNISHSNIDYQT [SNF2]	2.41
AEENLKKRIRLPSEERI [YIL149C/MLP2]	3.08
TEENIKGETNSEISIID [RRP45]	3.22
VSMYQNSSTSSTSNTPS [YDL088C/ASM4]	2.69
MHLMALHIHGSSNPLGI [COB]	2.32

---

# METHOD SUMMARY: protein stability index of a GFP-peptide fusion (yeast GPS) (PSI 1-4); higher = more stable; sorted into four equal gates, so the index is relative within each strain
# RUN PARAMETERS: ubr1∆
MEASURE NAME: protein stability index

CONSTRUCT SEQUENCE	RESULT VALUE
WNWAKQSLLSLYFEIIH [FAS2]	1.4
ASYVNIPVIALTDLDSP [RPS0A]	1.88
VSKEGLYQLVDIRDSSC [YMR129W/POM152]	2.84
EIFIRCNNVLYIRELPN [SMX3]	1.48
NGALDPKMGVSSSSLEC [RPO31]	3.21
VNIHHLLNEYRPHQSRE [MED7]	2.25
KDMLYSGITGECLQAYI [RET1]	2.31
ILAMTYSENGKHDSLRY [RPN1]	2.62

The measured values listed here are drawn from the supplement of paper PMC9732359.
